- Assay Overview: qHTS assay to identify small molecule agonists of the constitutive androstane receptor (CAR) signaling pathway - cell viability counter screen (AID 1224836); further: nearly all actives have a fitted effect of over 45% in size
- Experimental Parameters: HepG2-CYP2B6-hCAR viability, CellTiter-Fluor, 23 h, PK11195 added to every well; series mostly up to 92.4 µM
Results filed as inconclusive are left out. Activity calls are given as the source filed them. The call rests on the fitted dose curve; in most records, active means well fitted cell-killing curve with a large enough effect in the repeat runs; inconclusive means weak or mixed curves, or effect the other way; inactive means flat fitted curve, though single readings scatter.
Respond with a class label; see Y (active), N (inactive)

Here's what some known entries look like.
> print(dat)
                                   compound  assigned.category
1                             NC(=S)NC(N)=S                  N
2                      Cc1ccc(-c2ccccc2)cc1                  N
3  CC(CCc1ccccc1)NCC(O)c1ccc(O)c(C(N)=O)c1 (stereo not drawn)                  Y
4             O=C1NC(=O)[C@@H]2CC=CC[C@H]12                  N
5       CCn1c2ccccc2c2cc([N+](=O)[O-])ccc21                  N

### Prompt Dear colleague, could you share the recorded outcome for CCCCCCCCCCCC(=O)OCC(C)OC(=O)CCCCC(=O)O (stereo not drawn) when you have a moment?
### Response N

### Prompt Dear colleague, could you share the recorded outcome for c1ccc(SSc2ccccc2)cc1 when you have a moment?
### Response N

### Prompt Dear colleague, could you share the recorded outcome for CC(=O)c1ccc(C(C)=O)cc1 when you have a moment?
### Response N
